// data source = patent US11479551B2

# tested.target: PRMT5/MEP50 complex (Homo sapiens (Human))
# assay.method.text: PRMT5:MEP50 FlashPlate Assay (histone H4 peptide substrate, plus and minus MTA)
# Assay type: biochemical
# assay.conditions: in the absence of MTA, read-out: IC50
Label scheme for IC50: lower band (below 500 nM), central band (500 nM to below 2000 nM), upper band (2000 nM or more)

Worked cases, answers included:
1) NCc1n[nH]c(=O)c2ccc(-c3cnn4c3CN(c3ccccc3)CC4)cc12 ... lower band
2) Cc1nc2ccc(F)cn2c1-c1ccc2c(=O)[nH]nc(CN)c2c1 ... upper band
3) N#CCc1ccc2c(CN)n[nH]c(=O)c2c1 ... upper band

Query: State the band of "NCc1n[nH]c(=O)c2ccc(-c3cnc4cccnn34)cc12"
Reply: central band

----------
# pIC50 listing for each entry below
# System: HCT116 parental cells
# assay.method.text: Proliferation assay (CellTiter-Glo, 10 days of treatment), HCT116 parental
# Format: cell-based
# assay.conditions: Homo sapiens, HCT-116, 240 h
pIC50: −log10 of the molar value.

1. CCc1c(OC)ccc(-c2c(-c3ccc4c(=O)[nH]nc(CN)c4c3)cnn2C)c1C#N ... < 5.00
2. Cc1cc(-c2c(-c3ccc4c(=O)[nH]nc(CN)c4c3)cnn2C)c(C#N)cc1Cl ... < 5.00

Query: Can you look up the measured pIC50 of "Cc1cc(Cl)c(C#N)c(-c2c(-c3ccc4c(=O)[nH]nc(CN)c4c3)cnn2C)c1" for me?
Reply: < 5.00

Query: Can you look up the measured pIC50 of "Cc1cc(C2CC2)cc(-c2c(-c3ccc4c(=O)[nH]nc(CN)c4c3)cnn2C)c1C#N" for me?
Reply: < 5.00

Query: Can you look up the measured pIC50 of "Cc1cc(C#N)c(-c2c(-c3ccc4c(=O)[nH]nc(CN)c4c3)cnn2C)cc1C" for me?
Reply: < 5.00

----------
# tested.target: PRMT5/MEP50 complex (Homo sapiens (Human), UniProt O14744)
# Sequence (O14744 2-637): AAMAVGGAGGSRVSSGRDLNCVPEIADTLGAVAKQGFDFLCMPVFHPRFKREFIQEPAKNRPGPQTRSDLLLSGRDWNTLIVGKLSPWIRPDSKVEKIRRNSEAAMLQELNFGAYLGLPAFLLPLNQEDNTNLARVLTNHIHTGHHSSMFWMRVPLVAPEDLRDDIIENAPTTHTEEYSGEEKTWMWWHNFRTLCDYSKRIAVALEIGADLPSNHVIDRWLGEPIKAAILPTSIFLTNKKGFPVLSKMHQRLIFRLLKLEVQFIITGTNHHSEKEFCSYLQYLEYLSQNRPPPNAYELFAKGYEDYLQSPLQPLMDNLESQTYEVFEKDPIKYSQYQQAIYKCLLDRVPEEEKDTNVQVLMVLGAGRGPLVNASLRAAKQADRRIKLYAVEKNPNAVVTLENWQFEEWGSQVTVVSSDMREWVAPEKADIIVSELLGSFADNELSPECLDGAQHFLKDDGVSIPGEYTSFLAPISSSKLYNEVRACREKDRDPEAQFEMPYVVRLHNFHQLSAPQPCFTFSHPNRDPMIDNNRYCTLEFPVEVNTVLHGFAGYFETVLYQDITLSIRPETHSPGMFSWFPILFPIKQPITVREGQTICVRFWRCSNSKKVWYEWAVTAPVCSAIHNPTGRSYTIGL
# Sequence (Q9BQA1 2-342 partner): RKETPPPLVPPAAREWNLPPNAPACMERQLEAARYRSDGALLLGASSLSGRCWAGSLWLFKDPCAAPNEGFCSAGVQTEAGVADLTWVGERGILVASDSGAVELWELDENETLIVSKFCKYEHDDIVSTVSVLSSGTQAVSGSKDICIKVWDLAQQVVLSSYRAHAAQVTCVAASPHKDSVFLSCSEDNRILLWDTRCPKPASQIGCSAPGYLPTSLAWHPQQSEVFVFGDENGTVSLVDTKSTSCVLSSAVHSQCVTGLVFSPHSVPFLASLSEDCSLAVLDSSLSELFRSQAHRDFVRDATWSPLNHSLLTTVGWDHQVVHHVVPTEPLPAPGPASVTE
# assay.method.text: PRMT5:MEP50 FlashPlate Assay (histone H4 peptide substrate, plus and minus MTA)
# Assay type: biochemical
# assay.conditions: in the absence of MTA, read-out: IC50
pIC50: −log10 of the molar value.
# pIC50 listing for each entry below

The cases that follow already have their pIC50 on record.
1) NCc1n[nH]c(=O)c2ccc(-c3cnc(C(F)(F)F)nc3)cc12 [Example 3-12] ... < 3.00
2) N#Cc1ncccc1-c1ccc2c(=O)[nH]nc(CN)c2c1 [Example 4-7] ... < 4.00

Query: Can you look up the measured pIC50 of NCc1n[nH]c(=O)c2ccc(C3CCOC3)cc12 (racemic) [Example 5-2] for me?
Reply: < 4.00

----------
# IC50 listing for each entry below
# tested.target: PRMT5/MEP50 complex (Homo sapiens (Human), UniProt O14744)
# assay.method.text: PRMT5:MEP50 FlashPlate Assay (histone H4 peptide substrate, plus and minus MTA)
# Format: biochemical
# assay.conditions: IC50 + 2 μM MTA (nM), in the presence of 2 μM MTA
# Description: The PRMT5 inhibitory activity of compounds of the present invention was determined using either a PRMT5:MEP50 FlashPlate Assay (Reaction Biology Corporation) or a PRMT5:MEP50 HotSpot Assay (Reaction Biology Corporation). 1. PRMT5:MEP50 FlashPlate Assay
Give the value, in units of nM, as a plain number.

1) Cc1nc2cncc(-c3ccc4c(=O)[nH]nc(CN)c4c3)c2o1 [Example 4-110] ... 1000
2) NCc1n[nH]c(=O)c2ccc(-c3cnn4c3CN(C3CC3)CC4)cc12 [Example 4-82] ... 28
3) NCc1n[nH]c(=O)c2ccc(-c3cnc4ccc(F)cn34)cc12 [Example 4-21] ... 70

Query: Can you look up the measured IC50 of Cc1ncccc1-c1ccc2c(=O)[nH]nc(CN)c2c1 [Example 3-18] for me?
Reply: 33000

Query: Can you look up the measured IC50 of NCc1n[nH]c(=O)c2ccc(-c3cncc(F)c3)cc12 [Example 3-41] for me?
Reply: 1600

Query: Can you look up the measured IC50 of CCOc1ccn2ncc(-c3ccc4c(=O)[nH]nc(CN)c4c3)c2c1 [Example 4-158] for me?
Reply: 2.8

Query: Can you look up the measured IC50 of COc1cccc(-c2c(-c3ccc4c(=O)[nH]nc(CN)c4c3)cnn2C)c1C#N [Example 4-107] for me?
Reply: 0.5

Query: Can you look up the measured IC50 of Cn1ncc(-c2ccc3c(=O)[nH]nc(CN)c3c2)c1-c1ccccc1 [Example 4-32] for me?
Reply: 1.6

Query: Can you look up the measured IC50 of Cc1nn(C)c(C)c1-c1ccc2c(=O)[nH]nc(CN)c2c1 [Example 3-24] for me?
Reply: 20000

----------
# tested.target: PRMT5/MEP50 complex (Homo sapiens (Human), UniProt O14744)
# assay.method.text: PRMT5:MEP50 FlashPlate Assay (histone H4 peptide substrate, plus and minus MTA)
# Format: biochemical
# assay.conditions: IC50 + 2 μM MTA (nM), in the presence of 2 μM MTA
# Description: The PRMT5 inhibitory activity of compounds of the present invention was determined using either a PRMT5:MEP50 FlashPlate Assay (Reaction Biology Corporation) or a PRMT5:MEP50 HotSpot Assay (Reaction Biology Corporation). 1. PRMT5:MEP50 FlashPlate Assay
Label scheme for IC50: label 0 = under 40 nM, label 1 = from 40 nM up to 400 nM, label 2 = 400 nM and over

Worked cases, answers included:
1. NCc1n[nH]c(=O)c2ccc(-c3cncc(C(F)(F)F)c3)cc12 ... label 1
2. NCc1n[nH]c(=O)c2ccc(-c3cnc4[nH]cc(C(F)(F)F)c4c3)cc12 ... label 0
3. NCc1n[nH]c(=O)c2ccc(-c3cnc4ccc(Cl)nn34)cc12 ... label 1
4. NCc1n[nH]c(=O)c2ccc(-c3cnsc3)cc12 ... label 2
5. COc1cccc(Oc2cncc(-c3ccc4c(=O)[nH]nc(CN)c4c3)c2)c1 ... label 0
6. COc1ccc(Oc2cncc(-c3ccc4c(=O)[nH]nc(CN)c4c3)c2)cc1 ... label 0
7. NCc1n[nH]c(=O)c2ccc(-c3cncc([S+]([O-])c4ccccc4)c3)cc12 (stereo not drawn) ... label 0
8. COc1ccn2c(-c3ccc4c(=O)[nH]nc(CN)c4c3)cnc2c1 ... label 1

Query: State the band of "Cn1nc(C(F)(F)F)cc1-c1ccc2c(=O)[nH]nc(CN)c2c1"
Reply: label 2

Query: State the band of "CC(=O)N1CCn2ncc(-c3ccc4c(=O)[nH]nc(CN)c4c3)c2C1"
Reply: label 1

Query: State the band of "Cc1ccc(C#N)c(-c2cncc(-c3ccc4c(=O)[nH]nc(CN)c4c3)c2)c1"
Reply: label 0

Query: State the band of "Cn1ncc(-c2ccc3c(=O)[nH]nc(CN)c3c2)c1-c1cc(Cl)ccc1C#N"
Reply: label 0

Query: State the band of "CCn1cc(-c2ccc3c(=O)[nH]nc(CN)c3c2)cn1"
Reply: label 2

Query: State the band of "Cc1nc2cnccn2c1-c1ccc2c(=O)[nH]nc(CN)c2c1"
Reply: label 2

Query: State the band of "N#Cc1ccn(-c2cncc(-c3ccc4c(=O)[nH]nc(CN)c4c3)c2)n1"
Reply: label 2

Query: State the band of "NCc1n[nH]c(=O)c2ccc(-c3cnn4c3CN(C(=O)C3CCC3)CC4)cc12"
Reply: label 0

Query: State the band of "CCOc1cncc(-c2ccc3c(=O)[nH]nc(CN)c3c2)c1"
Reply: label 1

Query: State the band of "NCc1n[nH]c(=O)c2ccc(-c3cnn4c3CN(C(=O)c3ccccc3)CC4)cc12"
Reply: label 1

Query: State the band of "N#CCc1ccc2c(CN)n[nH]c(=O)c2c1"
Reply: label 2

Query: State the band of "NCc1n[nH]c(=O)c2ccc(-c3cnc4[nH]cc(F)c4c3)cc12"
Reply: label 1

Query: State the band of "CC(C)Cn1cc(-c2ccc3c(=O)[nH]nc(CN)c3c2)cn1"
Reply: label 2

Query: State the band of "NCc1n[nH]c(=O)c2ccc(-c3ccc(C(F)(F)F)nc3)cc12"
Reply: label 2

Query: State the band of "Cc1ccc2ncc(-c3ccc4c(=O)[nH]nc(CN)c4c3)n2n1"
Reply: label 1

----------
# tested.target: PRMT5/MEP50 complex (Homo sapiens (Human), UniProt O14744)
# assay.method.text: PRMT5:MEP50 HotSpot Assay (full-length histone H2A substrate, plus and minus MTA)
# Type: biochemical
# assay.conditions: IC50 + 2 μM MTA, in the presence of 2 μM MTA
# Protocol: The PRMT5 inhibitory activity of compounds of the present invention was determined using either a PRMT5:MEP50 FlashPlate Assay (Reaction Biology Corporation) or a PRMT5:MEP50 HotSpot Assay (Reaction Biology Corporation). The assay uses recombinant full-length histone H2A as the PRMT5 substrate. […] The reaction was stopped and transferred to filter paper for detection. The amount of tritiated H2A in each sample was determined using a scintillation counter.
pIC50: −log10 of the molar value.
Use Criterion met when the recorded pIC50 is no lower than 6; use Criterion not met when it is lower.

Worked cases, answers included:
1. Cn1ncc(-c2ccc3c(=O)[nH]nc(CN)c3c2)c1-c1cccc(C2CC2)c1C#N ... Criterion met
2. Cn1ncc(-c2ccc3c(=O)[nH]nc(CN)c3c2)c1OCc1ccccc1Cl ... Criterion not met
3. Cn1ncc(-c2ccc3c(=O)[nH]nc(CN)c3c2)c1OCc1ccccc1 ... Criterion met

Query: Exam item: decide whether the reported pIC50 for "Cn1ncc(-c2ccc3c(=O)[nH]nc(CN)c3c2)c1-c1ccccc1" is at least 6.
Reply: Criterion not met

Query: Exam item: decide whether the reported pIC50 for "Cc1cc(C)c(C#N)c(-c2c(-c3ccc4c(=O)[nH]nc(CN)c4c3)cnn2C)c1" is at least 6.
Reply: Criterion met

Query: Exam item: decide whether the reported pIC50 for "NCc1n[nH]c(=O)c2ccc(-c3cnc4[nH]cc(-c5ccccc5)c4c3)cc12" is at least 6.
Reply: Criterion met

Query: Exam item: decide whether the reported pIC50 for "CCc1cc(CC)c(C#N)c(-c2c(-c3ccc4c(=O)[nH]nc(CN)c4c3)cnn2C)c1" is at least 6.
Reply: Criterion met
